Source of measurements: the supplement of paper PMC12667976

B1: library; numbered along this chain (parent)
chain: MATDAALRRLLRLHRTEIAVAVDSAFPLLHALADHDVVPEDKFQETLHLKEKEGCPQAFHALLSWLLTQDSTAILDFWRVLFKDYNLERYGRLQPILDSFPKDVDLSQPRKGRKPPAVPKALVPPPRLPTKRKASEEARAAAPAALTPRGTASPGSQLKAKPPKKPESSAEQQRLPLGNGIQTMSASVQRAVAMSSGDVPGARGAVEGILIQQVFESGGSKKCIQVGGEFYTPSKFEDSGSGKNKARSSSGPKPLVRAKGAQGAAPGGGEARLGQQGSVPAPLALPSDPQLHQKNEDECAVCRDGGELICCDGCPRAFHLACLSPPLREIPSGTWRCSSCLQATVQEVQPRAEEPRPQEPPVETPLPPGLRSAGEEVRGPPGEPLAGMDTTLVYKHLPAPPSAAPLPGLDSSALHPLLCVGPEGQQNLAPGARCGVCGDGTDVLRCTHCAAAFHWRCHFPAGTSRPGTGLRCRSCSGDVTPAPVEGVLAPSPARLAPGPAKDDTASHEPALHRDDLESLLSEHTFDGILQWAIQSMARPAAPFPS

Variants of: B1
Test: AIRE transcriptional activation functional score (insulin promoter-GFP; nonsense median 0, synonymous median 1) (normalised score); higher = higher AIRE activity (more reporter activation)
Settings: with insulin promoter-GFP reporter in HEK293
AIRE transcriptional activation functional score of 0.6 or higher: yes. Under 0.6: no.

Entry L495Q : is its AIRE transcriptional activation functional score no less than 0.6?
yes

Entry E359T : is its AIRE transcriptional activation functional score no less than 0.6?
yes

Entry P360V : is its AIRE transcriptional activation functional score no less than 0.6?
yes
